# System: Vero E6
# Protocol Description: relative viability EC50 (midpoint between 100% and the lowest measured viability); higher = less toxic
# Condition Parameters: 72 h
Endpoint Name: relative viability EC50

Worked cases, answers included:
- O=C(Nc1ccc(Br)cc1)c1cc(Br)cc(Br)c1O: > 10 µM
- CC(C)/N=c1\cc2n(-c3ccc(Cl)cc3)c3ccccc3nc-2cc1Nc1ccc(Cl)cc1: > 10 µM
- CS(=O)(=O)OCCCCOS(C)(=O)=O: > 10 µM
- C[C@@H](Nc1cc(F)cc(F)c1)c1cc(C(=O)N(C)C)cc2c(=O)cc(N3CCOCC3)oc12: > 10 µM
- C=CCCCCCCCCC(=O)[O][Zn][O]C(=O)CCCCCCCCC=C [zinc-undecylenate]: > 10 µM
- CC(C)c1cccc2c(-c3ccccc3)cc(-c3ccc(-c4ccc(C(=O)O)cc4)[nH]3)nc12: > 10 µM
- N=C(Nc1ccccc1)c1cccs1: > 10 µM
- CC1(C)Cc2c(-c3ccccc3)c(-c3ccc(Cl)cc3)c(CC(=O)O)n2C1: > 10 µM

Let's switch to this compound now.
Task: Tell me reported relative viability EC50 for Fc1ccc2nc(CCC#Cc3ccccn3)cn2c1 , tested with Vero E6.
Result: > 10 µM

Values compiled from the supplement of paper PMC13380429.
